test system: phenyl-para-quinone induced writhing; assay: phenyl-para-quinone writhing assay in mice (analgesia); assay type: in vivo; settings: Mus musculus, sc; subcutaneous, mice; 50% inhibition; read-out: ED50, inhibition of phenyl-para-quinone induced writhing
readout label: ED50 (mg/kg)
The figure you give is taken to be in mg/kg; do not add the unit.

Q: Provide measured ED50 value, entry: CN(C)CCC[C@@]12CCCC[C@@H]1c1ccccc1O2.Cl (relative stereo)
Ans: 12.2

Q: Answer with the recorded ED50 of CN(C)C[C@@]12CCCC[C@@H]1c1ccccc1O2.Cl (relative stereo) only.
Ans: 21.7

Q: Tell me ED50 reported for CNC[C@@]12CCCC[C@@H]1c1ccccc1O2.Cl (relative stereo)
Ans: 25.8

Q: Identify ED50 associated with the compound CN(CCC[C@@]12CCCC[C@@H]1c1ccccc1O2)CCc1ccccc1.Cl (relative stereo)
Ans: 20.8
